Cited source: patent US20210290784A1

target_or_test_system: CSF1R Human RTK Kinase (Homo sapiens, UniProt P07333)
Sequence (P07333 20-972): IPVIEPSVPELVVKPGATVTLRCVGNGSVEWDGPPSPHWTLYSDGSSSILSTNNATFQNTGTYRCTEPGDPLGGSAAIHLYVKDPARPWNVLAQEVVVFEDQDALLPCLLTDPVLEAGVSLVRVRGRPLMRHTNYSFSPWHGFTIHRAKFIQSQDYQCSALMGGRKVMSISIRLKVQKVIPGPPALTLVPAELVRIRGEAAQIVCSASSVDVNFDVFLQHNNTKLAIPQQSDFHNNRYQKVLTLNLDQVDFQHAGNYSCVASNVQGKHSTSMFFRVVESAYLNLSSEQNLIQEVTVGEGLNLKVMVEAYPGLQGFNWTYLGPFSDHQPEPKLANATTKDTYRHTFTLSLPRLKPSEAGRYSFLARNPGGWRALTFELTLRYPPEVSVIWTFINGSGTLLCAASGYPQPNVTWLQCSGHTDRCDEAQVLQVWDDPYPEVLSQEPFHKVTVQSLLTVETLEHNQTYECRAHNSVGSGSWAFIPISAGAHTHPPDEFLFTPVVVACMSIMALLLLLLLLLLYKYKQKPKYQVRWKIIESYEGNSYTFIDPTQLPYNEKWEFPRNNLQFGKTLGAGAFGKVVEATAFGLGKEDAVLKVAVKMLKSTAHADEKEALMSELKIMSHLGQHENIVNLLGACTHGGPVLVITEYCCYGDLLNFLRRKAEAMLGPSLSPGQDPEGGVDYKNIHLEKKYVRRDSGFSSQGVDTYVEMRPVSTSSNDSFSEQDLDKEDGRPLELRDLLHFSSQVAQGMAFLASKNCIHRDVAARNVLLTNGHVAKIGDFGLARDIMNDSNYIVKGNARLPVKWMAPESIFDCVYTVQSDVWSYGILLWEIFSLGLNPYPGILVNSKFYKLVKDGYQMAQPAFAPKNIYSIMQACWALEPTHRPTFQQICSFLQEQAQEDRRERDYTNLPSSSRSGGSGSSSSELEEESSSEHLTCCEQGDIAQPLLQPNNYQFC
quantity_measured: pIC50
Numbers only, as −log10 of the molar value.

Returns the measured pIC50 for the input compound. Input: CC1CCN(c2cc(N3CCN(CCF)CC3)ccc2NC(=O)c2cc(C#N)c[nH]2)CC1 8.50

---

# pKd per entry for CSF1R (Homo sapiens, UniProt P07333)
One number for each entry, as −log10 of the molar value.

N#Cc1ccc(C(=O)Nc2ccc(N3CCN(CCF)CC3)cc2N2CCCCC2)o1 [1k JHU11763]	7.49

Recorded pKd for CN1CCN(c2ccc(NC(=O)c3cccc(F)n3)c(N3CCCCC3)c2)CC1 [1i JHU11767] with CSF1R (Homo sapiens, UniProt P07333), please? 7.52
